Ref: patent US20230285581A1

Biological target: human MSR1 extracellular domain expressed with a N-terminal nonahistidine tag (His9-hMSR1; R&D Systems, Cat #2708-MS) (human) (UniProt P21757)
Sequence (P21757 other isoform, or with tags, fused parts or gaps): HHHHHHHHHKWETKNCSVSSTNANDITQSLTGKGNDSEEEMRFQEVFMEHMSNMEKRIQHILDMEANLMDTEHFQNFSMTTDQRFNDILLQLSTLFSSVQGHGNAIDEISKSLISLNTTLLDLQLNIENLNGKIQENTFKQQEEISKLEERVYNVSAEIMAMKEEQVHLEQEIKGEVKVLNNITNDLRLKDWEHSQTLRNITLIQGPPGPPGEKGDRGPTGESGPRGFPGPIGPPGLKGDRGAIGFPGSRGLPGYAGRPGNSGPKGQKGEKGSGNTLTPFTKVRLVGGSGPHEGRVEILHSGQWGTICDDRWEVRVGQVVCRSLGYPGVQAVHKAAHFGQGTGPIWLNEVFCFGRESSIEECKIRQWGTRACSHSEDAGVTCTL
Experiment: competition ELISA; 300 nM antibody, competitor biot-AGE-BSA, plate-coated His9-hMSR1
Exercise: state measured % Blocking for each of the binders provided.
Numeric answer only, unit % assumed.

Given the binder H1H27734P-N297Q (antibody, human IgG1, V domains shown) VH: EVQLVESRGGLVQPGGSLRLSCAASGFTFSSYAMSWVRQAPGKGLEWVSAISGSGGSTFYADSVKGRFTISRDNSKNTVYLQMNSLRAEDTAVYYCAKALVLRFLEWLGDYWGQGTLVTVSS VL: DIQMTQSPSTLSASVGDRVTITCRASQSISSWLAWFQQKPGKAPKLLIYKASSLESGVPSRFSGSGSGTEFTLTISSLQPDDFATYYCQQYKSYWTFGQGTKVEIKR , what is its reported % Blocking?
-4

Given the binder H2aM25695N (antibody, mouse IgG2a, V domains shown) VH: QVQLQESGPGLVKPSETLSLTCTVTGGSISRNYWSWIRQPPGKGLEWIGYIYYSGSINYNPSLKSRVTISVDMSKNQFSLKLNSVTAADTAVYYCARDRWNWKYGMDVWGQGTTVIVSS VL: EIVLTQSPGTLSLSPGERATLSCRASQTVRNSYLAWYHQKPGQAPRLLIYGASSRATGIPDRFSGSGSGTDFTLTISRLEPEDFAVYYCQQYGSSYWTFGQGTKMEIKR , what is its reported % Blocking?
16
